meta.source: the RNAGym collection of RNA variant scans (doi:10.7554/elife.80360)

B1: HDV Ribozyme (parent)
chain: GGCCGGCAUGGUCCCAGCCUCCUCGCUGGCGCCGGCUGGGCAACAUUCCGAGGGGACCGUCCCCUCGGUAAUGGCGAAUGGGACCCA

# Variants of: B1
# test-name: self-cleavage, relative activity (ratio to wild type); higher = more cleavage; co-transcriptional
Group membership follows self-cleavage per the scheme lower = under 0.2, middle = from 0.2 up to 0.6, upper = 0.6 and over

Solved cases below.
Input: # bin label for C22U C32U
Output: upper

Input: Do the same for G31C G81C please
Output: lower

Input: Do the same for U9A G59U please
Output: upper

Input: Do the same for C41G U46G please
Output: middle

Input: Do the same for C4A C14A please
Output: lower

Input: Do the same for G53A G55A please
Output: upper

Input: Do the same for G2A C62U please
Output: lower

Input: Do the same for G25C G38C please
Output: lower

***
Input: # bin label for C36U C64U
Output: upper

Input: Do the same for C36G U46G please
Output: lower

Input: Do the same for A8U C41G please
Output: middle

Input: Do the same for G50A G81U please
Output: middle

Input: Do the same for U20G A42C please
Output: lower

Input: Do the same for G39A A70C please
Output: middle

Input: Do the same for C32A C64A please
Output: lower

Input: Do the same for G11C C58G please
Output: middle

Input: Do the same for G53C G81C please
Output: lower

Input: Do the same for G67A A78C please
Output: lower

Input: Do the same for G31C A77U please
Output: lower

Input: Do the same for A56C C58G please
Output: upper

Input: Do the same for G1U U65C please
Output: middle

Input: Do the same for A8U A42C please
Output: lower

Input: Do the same for G40A G74A please
Output: upper

Input: Do the same for C64U U72A please
Output: middle

Input: Do the same for G17A C86A please
Output: middle
